assaySummary: Long-term stability in feeds at room temperature (25° C.±2° C., RH 60%±10%; HPLC)
Assay type: physicochemical
conditionNotes: 100 ppm in INSIGHTER's broiler feed; Day 5
endpoint: Residual amount of active ingredient
The reply must contain the numeric value and, after it, the unit.

// below: answered compounds
compound | Residual amount of active ingredient
CC(=O)OC1=C(CCC(C)C)C(=O)C(CCC(C)C)(CCC(C)C)C(O)=C1C(=O)C(C)C [hexahydro-colupulone mono-acetate, Hexahydro-Colupulone Mono-Acetate] | 94.93%
CCCCCCCCCCCC(=O)OC1=C(CCC(C)C)C(=O)C(CCC(C)C)(CCC(C)C)C(O)=C1C(=O)C(C)C [hexahydro-colupulone mono-laurate] | 99.63%
CCCC(=O)OC1=C(CCC(C)C)C(=O)C(CCC(C)C)(CCC(C)C)C(O)=C1C(=O)C(C)C [hexahydro-colupulone mono-butyrate] | 99.00%

With those in mind, consider the next compound.
Recorded result, CCC(=O)OC1=C(CCC(C)C)C(=O)C(CCC(C)C)(CCC(C)C)C(O)=C1C(=O)C(C)C [hexahydro-colupulone mono-propionate] , Residual amount of active ingredient: 99.45%

----------
assaySummary: Long-term stability in feeds at room temperature (25° C.±2° C., RH 60%±10%; HPLC)
Format: physicochemical
conditionNotes: 100 ppm in creep feed for piglets from CP FEED; Day 60
endpoint: Residual amount of active ingredient (%)
Give the value, in units of %, as a plain number.

molecule | Residual amount of active ingredient [%]
CC(C)CCC1=C(O)C(C(=O)C(C)C)=C(O)C(CCC(C)C)(CCC(C)C)C1=O [hexahydro-colupulone, reference compound] | 77.54
CCCC(=O)OC1=C(CCC(C)C)C(=O)C(CCC(C)C)(CCC(C)C)C(O)=C1C(=O)C(C)C [hexahydro-colupulone mono-butyrate] | 95.47
CC(=O)OC1=C(CCC(C)C)C(=O)C(CCC(C)C)(CCC(C)C)C(O)=C1C(=O)C(C)C [hexahydro-colupulone mono-acetate, Hexahydro-Colupulone Mono-Acetate] | 96.16

With those in mind, consider the next molecule.
Recorded result, CCC(=O)OC1=C(CCC(C)C)C(=O)C(CCC(C)C)(CCC(C)C)C(O)=C1C(=O)C(C)C [hexahydro-colupulone mono-propionate] , Residual amount of active ingredient: 98.08
